Reference source for all entries: patent US20040224958A1

# TESTED SYSTEM: cdc2/cyclinB (Homo sapiens)
# Sequence (P06493 whole entry): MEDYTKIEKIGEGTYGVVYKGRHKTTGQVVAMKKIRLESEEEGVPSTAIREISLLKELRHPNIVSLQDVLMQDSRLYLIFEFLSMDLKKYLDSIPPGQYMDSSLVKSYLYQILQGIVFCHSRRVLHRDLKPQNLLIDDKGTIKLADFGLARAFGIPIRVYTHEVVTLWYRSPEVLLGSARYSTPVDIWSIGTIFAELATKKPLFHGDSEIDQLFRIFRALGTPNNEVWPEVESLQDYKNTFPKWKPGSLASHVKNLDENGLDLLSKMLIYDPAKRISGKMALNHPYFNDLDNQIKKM
# Sequence (P14635 whole entry, further chain): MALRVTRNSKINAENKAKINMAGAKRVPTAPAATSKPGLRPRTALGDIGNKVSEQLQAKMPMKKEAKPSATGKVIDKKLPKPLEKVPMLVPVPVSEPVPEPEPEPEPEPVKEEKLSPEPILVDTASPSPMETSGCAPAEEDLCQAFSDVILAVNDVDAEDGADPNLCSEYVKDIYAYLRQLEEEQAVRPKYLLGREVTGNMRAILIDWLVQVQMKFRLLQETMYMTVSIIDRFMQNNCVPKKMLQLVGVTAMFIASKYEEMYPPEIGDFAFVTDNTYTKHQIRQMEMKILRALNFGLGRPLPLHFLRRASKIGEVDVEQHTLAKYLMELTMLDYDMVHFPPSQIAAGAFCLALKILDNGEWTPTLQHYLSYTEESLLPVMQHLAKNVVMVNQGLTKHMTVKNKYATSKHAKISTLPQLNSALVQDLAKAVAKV
# MEASUREMENT DESCRIPTION: Cyclin-Dependent Kinase Assay cdc2/cyclinB
As shown below, each of these compounds has a reported pIC50 value.
# log scale: pIC50 equals minus log10 of the concentration in mol/L

{"COMPOUND": "O=c1ccc2cnc(Nc3ccc(OC(F)(F)C(F)F)cc3)nc2n1C1CC2CCC1C2 (centres unmarked) [Example 219]", "TESTED SYSTEM": "cdc2/cyclinB (Homo sapiens)", "pIC50": 5.15}
{"COMPOUND": "CCC(C)n1c(=O)ccc2cnc(Nc3ccc(O)c(Cl)c3)nc21 (centres unmarked) [Example 452]", "TESTED SYSTEM": "cdc2/cyclinB (Homo sapiens)", "pIC50": 7.59}
{"COMPOUND": "CCC(CC)n1c(=O)ccc2cnc(Nc3ccc(F)c(Cl)c3)nc21 [Example 481]", "TESTED SYSTEM": "cdc2/cyclinB (Homo sapiens)", "pIC50": 6.87}
{"COMPOUND": "COc1cc(Nc2ncc3ccc(=O)n(C(C)C)c3n2)cc(C(F)(F)F)c1 [Example 425]", "TESTED SYSTEM": "cdc2/cyclinB (Homo sapiens)", "pIC50": 6.31}

From here, focus on the item given below.
Per the records, this compound ( O=c1ccc2cnc(Nc3ccc4[nH]ccc4c3)nc2n1C1CCCC1 [Example 528] ) has pIC50 equal to 7.46

----------
# TESTED SYSTEM: cdk4/D (Homo sapiens, UniProt P11802)
# Sequence (P11802 whole entry): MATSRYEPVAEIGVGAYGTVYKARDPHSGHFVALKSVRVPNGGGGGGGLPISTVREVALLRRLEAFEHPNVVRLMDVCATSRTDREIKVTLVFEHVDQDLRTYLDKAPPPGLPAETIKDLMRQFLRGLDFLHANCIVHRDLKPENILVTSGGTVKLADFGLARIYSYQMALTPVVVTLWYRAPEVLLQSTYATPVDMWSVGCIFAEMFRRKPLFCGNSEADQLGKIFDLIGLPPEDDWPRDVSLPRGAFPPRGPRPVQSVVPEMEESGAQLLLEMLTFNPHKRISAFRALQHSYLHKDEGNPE
# Sequence (P24385 whole entry, further chain): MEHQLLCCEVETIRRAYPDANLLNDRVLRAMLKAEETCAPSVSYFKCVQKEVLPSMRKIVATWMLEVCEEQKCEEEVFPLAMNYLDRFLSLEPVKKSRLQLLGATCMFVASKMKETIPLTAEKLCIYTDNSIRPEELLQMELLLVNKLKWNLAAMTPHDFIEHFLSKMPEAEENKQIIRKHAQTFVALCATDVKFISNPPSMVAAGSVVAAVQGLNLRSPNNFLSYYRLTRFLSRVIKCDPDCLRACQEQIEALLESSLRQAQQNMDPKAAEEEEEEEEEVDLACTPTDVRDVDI
# MEASUREMENT DESCRIPTION: Cyclin-Dependent Kinase 4 (cdk4) Assay
# Format: biochemical
# ASSAY SETUP: read-out: cdk4/D IC50
Exam item: assign Condition met to entries whose IC50 is below 400 nM and Condition not met to entries at or above 400 nM. Note that a value of exactly 400 nM receives Condition not met.

In plain terms, does `CCCCn1c(=O)ccc2cnc(Nc3ccc(F)cc3)nc21` come in under 400 nM for IC50?
Condition met

In plain terms, does `CCCn1c(=O)ccc2cnc(Nc3ccc(O)c(Cl)c3)nc21` come in under 400 nM for IC50?
Condition met

In plain terms, does `CCCCn1c(=O)ccc2cnc(Nc3ccc(Cl)c(C(F)(F)F)c3)nc21` come in under 400 nM for IC50?
Condition not met

In plain terms, does `CCC(CC)n1c(=O)ccc2cnc(Nc3ccc(F)cc3F)nc21` come in under 400 nM for IC50?
Condition not met

In plain terms, does `CCCCn1c(=O)ccc2cnc(Nc3ccc(C#N)c(NC(C)=O)c3)nc21` come in under 400 nM for IC50?
Condition met

In plain terms, does `CCC(CC)n1c(=O)ccc2cnc(Nc3ccc(C)c(C)c3)nc21` come in under 400 nM for IC50?
Condition met

In plain terms, does `CC(C)n1c(=O)ccc2cnc(Nc3ccc(O)c(Cl)c3)nc21` come in under 400 nM for IC50?
Condition met

In plain terms, does `O=c1ccc2cnc(Nc3ccc(F)c([N+](=O)[O-])c3)nc2n1CC1CC1` come in under 400 nM for IC50?
Condition not met

In plain terms, does `O=c1ccc2cnc(Nc3ccc(O)cc3F)nc2n1C1CCCC1` come in under 400 nM for IC50?
Condition met

----------
As shown below, each of these compounds has a reported IC50 value.
# TESTED SYSTEM: Cdk5/p25 (Homo sapiens, UniProt Q00535)
# MEASUREMENT DESCRIPTION: Cyclin-Dependent Kinase 5 High Throughput Screening (cdk5-HTS) Assay
# Format: biochemical
# ASSAY SETUP: high throughput screen
State the answer as a number, implicitly in nM.

{"COMPOUND": "CCCCn1c(=O)ccc2cnc(Nc3ccc(F)c(C(F)(F)F)c3)nc21", "RECORDED RESULT": 84}

Per the records, this compound ( CCC(C)n1c(=O)ccc2cnc(Nc3cc(Cl)c(Cl)c(Cl)c3)nc21 (stereo not drawn) ) has IC50 equal to 82

Per the records, this compound ( `CC(C)n1c(=O)ccc2cnc(Nc3ccc(C#N)c(C#N)c3)nc21` ) has IC50 equal to 160

----------
# TESTED SYSTEM: cdk2/cyclinA (Homo sapiens)
# MEASUREMENT DESCRIPTION: Cyclin-Dependent Kinase Assay cdk2/cyclinA
# ASSAY SETUP: cdk2/A IC50, Table 1
PROPERTY LABEL: IC50 (nM)
State the answer as a number, implicitly in nM.

Consider the following illustrative entries.
{"MOLECULE": "O=c1ccc2cnc(Nc3ccc(-n4cccc4)cc3)nc2n1C1CCCCC1", "TESTED SYSTEM": "cdk2/cyclinA (Homo sapiens)", "DISPLAY UNIT": "nM", "IC50": 104}
{"MOLECULE": "O=c1ccc2cnc(Nc3ccc(N4CCc5ccccc5C4)cc3)nc2n1C1CCCCC1", "TESTED SYSTEM": "cdk2/cyclinA (Homo sapiens)", "DISPLAY UNIT": "nM", "IC50": 123}
{"MOLECULE": "CN1CCN(c2ccc(Nc3ncc4ccc(=O)n(C5CC6CCC5C6)c4n3)cc2)CC1 (centres unmarked)", "TESTED SYSTEM": "cdk2/cyclinA (Homo sapiens)", "DISPLAY UNIT": "nM", "IC50": 42.5}
{"MOLECULE": "CN(C)c1ccc(Nc2ncc3ccc(=O)n(CCCOCc4ccccc4)c3n2)cc1", "TESTED SYSTEM": "cdk2/cyclinA (Homo sapiens)", "DISPLAY UNIT": "nM", "IC50": 217}

Per the records, this molecule ( `CN1CCN(c2ccc(Nc3ncc4ccc(=O)n(C5CCCCC5)c4n3)cc2)CC1` ) has IC50 equal to 15

----------
# TESTED SYSTEM: cdk4/D (Homo sapiens)
# MEASUREMENT DESCRIPTION: Cyclin-Dependent Kinase 4 (cdk4) Assay
# Type: biochemical
# ASSAY SETUP: read-out: cdk4/D IC50
pIC50: −log10 of the molar value.
1.0 means recorded pIC50 is 6 or above; 0.0 means it is below 6.

{"RECORD SMILES": "CCn1c(=O)ccc2cnc(Nc3ccc(F)c(F)c3)nc21", "QUALITATIVE LABEL": 1.0}
{"RECORD SMILES": "CCCCn1c(=O)ccc2cnc(Nc3ccccc3)nc21", "QUALITATIVE LABEL": 1.0}
{"RECORD SMILES": "CC(C)n1c(=O)ccc2cnc(Nc3ccc(OC(F)(F)F)cc3)nc21", "QUALITATIVE LABEL": 1.0}

Test whether the compound `CCCCn1c(=O)ccc2cnc(Nc3ccc(F)c(F)c3)nc21` records pIC50 of 6 or higher.
1.0

Test whether the compound `CCn1c(=O)ccc2cnc(Nc3ccc(C#N)c(C#N)c3)nc21` records pIC50 of 6 or higher.
0.0

Test whether the compound `COc1cc(Nc2ncc3ccc(=O)n(CC4CC4)c3n2)cc(OC)c1OC` records pIC50 of 6 or higher.
0.0

Test whether the compound `CCC(CC)n1c(=O)ccc2cnc(Nc3ccc4oc(=O)[nH]c4c3)nc21` records pIC50 of 6 or higher.
1.0

Test whether the compound `CCCn1c(=O)ccc2cnc(Nc3cc(C(F)(F)F)ccc3F)nc21` records pIC50 of 6 or higher.
0.0

----------
# TESTED SYSTEM: cdk2/cyclinE (Homo sapiens)
# MEASUREMENT DESCRIPTION: Cyclin-Dependent Kinase Assay cdk2/cyclinE
# ASSAY SETUP: cdk2/E IC50
PROPERTY LABEL: IC50

{"MOLECULE": "CCCn1c(=O)ccc2cnc(Nc3ccc(F)c([N+](=O)[O-])c3)nc21 [Example 351]", "TESTED SYSTEM": "cdk2/cyclinE (Homo sapiens)", "IC50": "0.56 µM"}
{"MOLECULE": "CC(C)n1c(=O)ccc2cnc(Nc3cccc([N+](=O)[O-])c3)nc21 [Example 406]", "TESTED SYSTEM": "cdk2/cyclinE (Homo sapiens)", "IC50": "0.0947 µM"}
{"MOLECULE": "CCC(C)n1c(=O)ccc2cnc(Nc3ccc(OC)c(F)c3)nc21 (stereo not drawn) [Example 462]", "TESTED SYSTEM": "cdk2/cyclinE (Homo sapiens)", "IC50": "0.06 µM"}

With cdk2/cyclinE (Homo sapiens) as the test system, CCCCn1c(=O)ccc2cnc(Nc3ccc(O)c(Cl)c3)nc21 [Example 383] showed IC50 of 0.0253 µM

With cdk2/cyclinE (Homo sapiens) as the test system, CCCn1c(=O)ccc2cnc(Nc3cc(C(F)(F)F)ccc3F)nc21 [Example 311] showed IC50 of 1.46 µM

With cdk2/cyclinE (Homo sapiens) as the test system, CCCn1c(=O)ccc2cnc(Nc3ccc(C#N)c(C#N)c3)nc21 [Example 339] showed IC50 of 1.8 µM

With cdk2/cyclinE (Homo sapiens) as the test system, CCn1c(=O)ccc2cnc(Nc3cc(OC)cc(C(F)(F)F)c3)nc21 [Example 300] showed IC50 of 0.95 µM

With cdk2/cyclinE (Homo sapiens) as the test system, CC(C)n1c(=O)ccc2cnc(Nc3cccc(S(N)(=O)=O)c3)nc21 [Example 430] showed IC50 of 0.095 µM

With cdk2/cyclinE (Homo sapiens) as the test system, CCC(CC)n1c(=O)ccc2cnc(Nc3ccc4oc(=O)[nH]c4c3)nc21 [Example 517] showed IC50 of 0.029 µM

With cdk2/cyclinE (Homo sapiens) as the test system, CCCCn1c(=O)ccc2cnc(Nc3cc(C(F)(F)F)ccc3F)nc21 [Example 372] showed IC50 of 1.03 µM

With cdk2/cyclinE (Homo sapiens) as the test system, Cn1c(=O)ccc2cnc(Nc3ccccc3)nc21 [Example 285] showed IC50 of 2.27 µM

With cdk2/cyclinE (Homo sapiens) as the test system, O=C1CSc2ccc(Nc3ncc4ccc(=O)n(C5CCCC5)c4n3)cc2N1 [Example 556] showed IC50 of 0.04 µM
